assay: yeast display, Sf9 membrane polyspecificity reagent, FACS + sequencing; frameworks hold sequencing errors
readout-kind: polyreactivity (PSR sort gate)

The examples below pair each entry with its known result.
Data request: Please look up its polyreactivity (PSR sort gate): QDQLVESGGGLLQAGGSLSLSCAASGFTIYGYAMVWYRQAPGKERELVAAITNSGGRTYYADSVKGRFTISRDNAKNSVYLQMKSLKPEFTAVYFCAVDDLRGYDYWGQGTQVTVSS
Data returned: low polyreactivity

Data request: Consider the sequence shown here: QVHLVESGGGLVQAGGSLRLSSAASGRTLSRYAMGWYRQAPGKERELGASISWSGGRTYYADSVKGRFTISRDNAKNTVYLQMNSLKPEDTAVYYCAAVYVTAPFDYWGQGTQVTVSS What is its recorded polyreactivity (PSR sort gate)?
Data returned: low polyreactivity

Data request: # input sequence: QVQLVESGGGLVQAGGSLRLSCAASGRTFKHYAMGWYRQAPGKERELVAGISRGGGITYYADSVKGRFTISRDNAKNTVYLQMNSLKPDDTAVYYCNAYDLYKSGGDYWGQGTQVTVSS ; wanted: its polyreactivity (PSR sort gate)
Data returned: high polyreactivity

Data request: Fill in: polyreactivity (PSR sort gate) of QVQLVESGGGLVQAGGSLRLSCAASGNTFPFNAMGWYRQAPGKERELVAAISRGGSTYYADSVKGRFTISRDNAKNTVYLQMNSLKPDDTAVYYCAAGYRRQGYGGYDYWGQGTQVTVSS is ___
Data returned: high polyreactivity

Data request: Need polyreactivity (PSR sort gate), item QVQLVESGGGLVQAGGSLRLSCAASGFIFYRNTMGWYRQAPGKEREFFAAITRSGGITRYADSVKGRFTISRDNAKNTVYLQMNSLKPEDTAVYYCAARRWIADPGRIMDYWGQGTQVTVSS
Data returned: high polyreactivity

Data request: What does the data say about its polyreactivity (PSR sort gate)? Entry: QVQLVESGGGLVQAGGSLRLSCDASGRIFSRNSMGWYRQAPGKERELVAANTWRGGSTYYADSVKGRFTISRDNAKNTVYLQLNSLKPEDPAVYYCNRDYRQYGYAYSGRYYWGQGTQVTVSS
Data returned: high polyreactivity

Data request: # query: polyreactivity (PSR sort gate) of entry QVQLVESGGGLVQAGGSLRLSCAASGRTFSANAMGWYRQAPGKDRELVAANRRTGGRTYYADSVKGRFTISRDNAKNTDYLQMNSLKPEDTAVYYCKAVNKPYTREYGYDYWGQGTQGTVSS
Data returned: high polyreactivity

Data request: Give its polyreactivity (PSR sort gate) value. Item: QVQLVESGGGLVQAGGSLRLSCAASGSIFSYNAMGWYRQAPGKEREFVAAITSSGTRTYYADSVKGRFTISRDNAKNTVYLQMNSLKPEDTAVYYCAAKPSRYGIGFYWGQGTQVTVSS
Data returned: high polyreactivity

Data request: Which value of polyreactivity (PSR sort gate) has been reported for QVHLVESAGGLVQAAASLRLTCSASGNTLGSYAMGWYIQAPGKETKFVATISKRGGSTYYADSVKGRFTISRDNAKNTVYFQMNSLKPEDSAVYYCAAEDEYYGGDEYWGQGTQVTVSS in the records?
Data returned: high polyreactivity

Data request: Fill in: polyreactivity (PSR sort gate) of QVQLVESGGGIVQAGGSLRLSCAASGLTFSIYPIGWYRQAPGKERELVAAISWSGGSTYYADSVKGRFTISRDNAKNTVYLQMNSLKPEDTAVYYCAARVYRPWWSYDYWGQGTQVTVSS is ___
Data returned: high polyreactivity

Then there is this sequence:
Data request: Can you look up the measured polyreactivity (PSR sort gate) of QVHLVESGGGLVQAGRSLRLSCAASGSIFYVYAMGWYRQAPGKETQLVATISTGGSTYYADSVKGRFTISRDNAKNTVYLQMNSLKPEDTAVYYCNAQFTPRYWGGYDSWGQGNQVTVSS for me?
Data returned: low polyreactivity
